biological target: mTEM8; assay: ELISA
Quantity: pEC50
Keep in mind that pEC50 stands for -log10 of concentration in molar terms.

pEC50 recorded for this binder, L5 (Fab, V domains shown) VH: QVQLVESGGGLVQPGGSLRLSCAASGFTFNSYGLSWVRQAPGKGLEWVSNISSNGSYTYYADSVKGRFTISRDNSKNTLYLQMNSLRAEDTAVYYCARAGYGLFDVWGQGTLVTVSS VL: DIELTQPPSVSVAPGQTARISCSGDKLREYYVHWYQQKPGQAPVLVIYGDNKRPSGIPERFSGSNSGNTATLTISGTQAEDEADYYCSSWAGSRSGTVFGGGTKLTVL , is 9.66
